Test system: LS174T
Test: MTT in vitro antiproliferative assay, LS174T
Type: cell-based, human
Details: Homo sapiens, 48 h, 50% cell death
Below, each entry is listed with its recorded IC50.

COc1cc(Cc2nnc3sc(-c4cc([N+](=O)[O-])ccc4[N+](=O)[O-])nn23)c(S(=O)(=O)N(C)C)cc1OC [KA39]; 21.5 µM
COc1cc(Cc2nnc3sc(C=Cc4ccc(Cl)cc4)nn23)c(S(=O)(=O)N(C)C)cc1OC [KA26]; > 100 µM

Here's the next entry for you.
**Query** Quick one: IC50 of COc1cc(Cc2nnc3sc(C=Cc4ccc(F)cc4)nn23)c(S(=O)(=O)N(C)C)cc1OC [KA25] ?
**Result** > 100 µM

====

Experiment: In vivo acute toxicity
Conditions: both sexes, mouse, in vivo, ip; CB17 SCID mice, single i.p. injection, 30 days observation, estimated graphically
Below, each entry is listed with its recorded LD50 at 30 days.
Express your answer in mg/kg, writing the number without its unit.

Solved cases below.
COc1cc(Cc2nnc3sc(C=Cc4ccc(F)cc4)nn23)c(S(=O)(=O)N(C)C)cc1OC; 360
COc1cc(Cc2nnc3sc(-c4cc([N+](=O)[O-])ccc4[N+](=O)[O-])nn23)c(S(=O)(=O)N(C)C)cc1OC; 100

Here's the next entry for you.
**Query** Quick one: LD50 at 30 days of COc1cc(Cc2nnc3sc(C=Cc4ccc(Cl)cc4)nn23)c(S(=O)(=O)N(C)C)cc1OC ?
**Result** 160

====

System: SKOV-3
Assay: MTT in vitro antiproliferative assay, SKOV-3
Type: cell-based
Conditions: Homo sapiens, SK-OV-3; SKOV-3, MTT, 48 h drug exposure; read-out: TGI
reported.endpoint: IC (TGI) (µM)
Express your answer in µM, writing the number without its unit.

CCN(CC)S(=O)(=O)c1cc(OC)c(OC)cc1Cc1nnc2sc(-c3cccc(Cl)c3)nn12; 14
COc1cc(Cc2nnc3sc(-c4cc([N+](=O)[O-])ccc4[N+](=O)[O-])nn23)c(S(=O)(=O)N(C)C)cc1OC; 12
COc1cc(Cc2nnc3sc(C=Cc4ccc(F)cc4)nn23)c(S(=O)(=O)N(C)C)cc1OC; 50
COc1cc(Cc2nnc3sc(-c4cccc(Cl)c4)nn23)c(S(=O)(=O)N(C(C)C)C(C)C)cc1OC; 46

Here's the next entry for you.
**Query** Please provide the recorded IC (TGI) for CCN(CC)S(=O)(=O)c1cc(OC)c(OC)cc1Cc1nnc2sc(-c3ccc(Cl)cc3)nn12 , tested on SKOV-3.
**Result** 60

====

System: SKOV-3
Assay: MTT in vitro antiproliferative assay, SKOV-3
Format: cell-based
Conditions: Homo sapiens, SK-OV-3; SKOV-3, MTT, 48 h drug exposure; read-out: TGI
Description: The in vitro antiproliferative activities of the novel triazolo[3,4-b]thiadiazole derivatives were estimated in ten well-established human cancer cell lines including three ovarian (SKOV-3, UWB 1.289, and UWB 1.289+BRCA1), five colorectal adenocarcinoma (DLD-1, HT-29, LS174T, LoVo, and SW403), and two prostate cancer cell lines (PC-3 and DU-145). […] The in vitro anticancer effect of a tested compound on cell viability was determined by three dose–response parameters termed GI50, TGI, and IC50. […]
reported.endpoint: IC (TGI)

Solved cases below.
CCN(CC)S(=O)(=O)c1cc(OC)c(OC)cc1Cc1nnc2sc(-c3ccc([N+](=O)[O-])cc3)nn12; > 100 µM
CCN(CC)S(=O)(=O)c1cc(OC)c(OC)cc1Cc1nnc2sc(/C=C/c3ccc(F)cc3)nn12; > 100 µM
COc1cc(Cc2nnc3sc(-c4ccc(F)cc4)nn23)c(S(=O)(=O)N(C(C)C)C(C)C)cc1OC; > 100 µM
COc1cc(Cc2nnc3sc(/C=C/c4ccc(F)cc4)nn23)c(S(=O)(=O)N(C(C)C)C(C)C)cc1OC [Compound 10b]; > 100 µM
CCN(CC)S(=O)(=O)c1cc(OC)c(OC)cc1Cc1nnc2sc(/C=C/c3ccc(Cl)cc3)nn12; > 100 µM
COc1cc(Cc2nnc3sc(C=Cc4ccc(Cl)cc4)nn23)c(S(=O)(=O)N(C)C)cc1OC; > 100 µM

Here's the next entry for you.
**Query** Quick one: IC (TGI) of CCN(CC)S(=O)(=O)c1cc(OC)c(OC)cc1Cc1nnc2sc(/C=C/c3cccc([N+](=O)[O-])c3)nn12 ?
**Result** > 100 µM
